Item-by-item account of EC50
Target: human orexin type 2 receptor (hOX2R) (Homo sapiens, UniProt O43614)
Construct: expressed in transfected cells
Sequence (O43614 whole entry): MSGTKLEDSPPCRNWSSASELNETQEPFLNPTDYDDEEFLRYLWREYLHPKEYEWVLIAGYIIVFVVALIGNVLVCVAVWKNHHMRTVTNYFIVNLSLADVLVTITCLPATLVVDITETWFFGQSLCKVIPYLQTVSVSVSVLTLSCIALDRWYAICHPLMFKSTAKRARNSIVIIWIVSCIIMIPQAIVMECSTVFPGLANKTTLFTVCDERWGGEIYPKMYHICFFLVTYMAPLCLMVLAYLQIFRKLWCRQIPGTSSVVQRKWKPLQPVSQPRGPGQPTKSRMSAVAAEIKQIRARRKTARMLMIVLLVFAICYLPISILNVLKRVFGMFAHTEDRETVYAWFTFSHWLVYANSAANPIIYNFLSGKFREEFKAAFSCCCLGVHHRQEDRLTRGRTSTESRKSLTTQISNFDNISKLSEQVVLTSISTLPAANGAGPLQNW
Assay: Measurement of orexin type 2 receptor agonist activity (FLIPR TETRA intracellular Ca2+ fluorescence)
Format: cell-based
Settings: CHO cells expressing hOX2R; agonist activity, Ca2+ fluorescence; read-out: hOX2 pEC50 (converted)
Numbered stars: 1 amine (or outer) side, 2 acyl side, 3 side chain; on linkers, the order of the positions; unused ones are H or OH. Square brackets hold non-standard residues; d marks the D form. Peptide text beside a SMILES is read from it. * marks the point of attachment. hArg(Et2) = CCN=C(NCC)NCCCC[C@H](N)C(=O)O; X2 = O=C([C@@H](N[*:1])c1cccc(O)c1)[*:2]; X4 = CN(C)CCOCCOCCOCCOCCOCCOCCC(=O)*; Gly(NCH2CH2Ph) = O=C(O)CNCCc1ccccc1; Hyp = O=C(O)[C@@H]1C[C@@H](O)CN1; Hpg = N[C@H](C(=O)O)c1ccc(O)cc1; Aoc(2) = CCCCCC[C@H](N)C(=O)O; Phg = N[C@H](C(=O)O)c1ccccc1

Worked cases, EC50 given:
# COMPOUND, ASSAY_TARGET, EC50
records = [
    ("CCCCCC[C@H](NC(=O)[C@@H](NC(=O)[C@H](CC(C)C)NC(=O)[C@@H](NC(=O)CNC(=O)[C@@H](NC(=O)[C@H](C)NC(=O)[C@H](Cc1c[nH]cn1)NC(=O)[C@H](CC(N)=O)NC(=O)CN(CCc1ccccc1)C(=O)[C@@H](N)CCCCN/C(=N/CC)NCC)c1cccc(O)c1)[C@@H](C)CC)[C@@H](C)O)C(N)=O [Peptide 17] (H-[hArg(Et2)][Gly(NCH2CH2Ph)]NHA[X2]GILT[Aoc(2)]-NH2)", "human orexin type 2 receptor (hOX2R) (Homo sapiens, UniProt O43614)", "< 0.1 nM"),
    ("CCCCCC[C@H](NC(=O)[C@@H](NC(=O)[C@H](CC(C)C)NC(=O)[C@@H](NC(=O)CNC(=O)[C@@H](NC(=O)[C@H](C)NC(=O)[C@@H]1C[C@@H](O)CN1C(=O)[C@H](CC(N)=O)NC(=O)CN(CCc1ccccc1)C(=O)[C@H](CCCNC(=N)N)NC(=O)CCOCCOCCOCCOCCOCCOCCN(C)C)c1ccccc1)[C@@H](C)CC)[C@@H](C)O)C(N)=O [Peptide 2] (X4-R[Gly(NCH2CH2Ph)]N[Hyp]A[Phg]GILT[Aoc(2)]-NH2)", "human orexin type 2 receptor (hOX2R) (Homo sapiens, UniProt O43614)", "< 0.1 nM"),
]

Please find the next compound below.
Qu. Bench note: what EC50 did CCCCCC[C@H](NC(=O)[C@@H](NC(=O)[C@H](CC(C)C)NC(=O)[C@@H](NC(=O)CNC(=O)[C@@H](NC(=O)[C@H](C)NC(=O)[C@H](Cc1c[nH]cn1)NC(=O)[C@H](CC(N)=O)NC(=O)CN(CCc1ccccc1)C(=O)[C@@H](N)CCCCN/C(=N/CC)NCC)c1ccc(O)cc1)[C@@H](C)CC)[C@@H](C)O)C(N)=O [Peptide 20] (H-[hArg(Et2)][Gly(NCH2CH2Ph)]NHA[Hpg]GILT[Aoc(2)]-NH2) show?
Ans. < 0.1 nM
